Reference source for all entries: ChEMBL document CHEMBL2218924

# TARGET UNDER TEST: Tyrosine-protein kinase Tec (Homo sapiens) (UniProt P42680)
# Sequence (P42680 whole entry): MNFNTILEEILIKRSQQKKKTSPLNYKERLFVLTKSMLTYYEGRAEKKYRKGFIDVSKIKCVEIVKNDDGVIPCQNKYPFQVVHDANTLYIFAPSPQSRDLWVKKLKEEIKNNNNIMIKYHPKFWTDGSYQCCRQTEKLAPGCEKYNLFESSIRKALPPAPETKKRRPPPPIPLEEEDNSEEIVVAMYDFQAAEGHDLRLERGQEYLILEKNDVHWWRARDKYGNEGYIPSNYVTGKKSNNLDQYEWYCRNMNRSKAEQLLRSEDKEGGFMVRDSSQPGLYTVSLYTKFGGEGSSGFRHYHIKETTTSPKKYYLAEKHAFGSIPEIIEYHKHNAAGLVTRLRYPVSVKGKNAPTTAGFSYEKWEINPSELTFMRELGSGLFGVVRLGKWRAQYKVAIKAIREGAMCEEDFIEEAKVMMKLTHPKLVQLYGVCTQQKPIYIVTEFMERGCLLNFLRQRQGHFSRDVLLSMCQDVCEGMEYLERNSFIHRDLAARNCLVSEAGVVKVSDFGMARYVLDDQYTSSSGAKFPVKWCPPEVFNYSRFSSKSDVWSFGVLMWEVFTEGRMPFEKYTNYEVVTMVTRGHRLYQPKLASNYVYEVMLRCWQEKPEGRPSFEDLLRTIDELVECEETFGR
# MEASUREMENT CONTEXT: at 10 µM
Measured residual activity by item
All answers are understood in %, so give the number only.

The cases that follow already have their residual activity on record.
Report residual activity from Tyrosine-protein kinase Tec (Homo sapiens) (UniProt P42680) testing of "O=C1NC(=O)c2c1c1c3ccccc3[nH]c1n1cncc21" 65

Report residual activity from Tyrosine-protein kinase Tec (Homo sapiens) (UniProt P42680) testing of "CC(C)[C@H](CO)Nc1nc(Nc2cc(N)cc(Cl)c2)c2ncn(C(C)C)c2n1" 13

Report residual activity from Tyrosine-protein kinase Tec (Homo sapiens) (UniProt P42680) testing of "O=C1NC(=O)C(c2cn(CCCO)c3ncccc23)=C1c1cnccn1" 73

Continuing:
Report residual activity from Tyrosine-protein kinase Tec (Homo sapiens) (UniProt P42680) testing of "COc1cc2ncnc(Nc3cccc(Cl)c3)c2cc1OC" 43

Report residual activity from Tyrosine-protein kinase Tec (Homo sapiens) (UniProt P42680) testing of "Nc1ncnc2[nH]nc(Nc3ccc(F)cc3)c12" 21

Report residual activity from Tyrosine-protein kinase Tec (Homo sapiens) (UniProt P42680) testing of "COc1ccc2c(c1)c(C1=C(c3c[nH]c4ccccc34)C(=O)NC1=O)cn2CCCN(C)C" 63

Report residual activity from Tyrosine-protein kinase Tec (Homo sapiens) (UniProt P42680) testing of "O=C1Cc2c([nH]c3ccc([N+](=O)[O-])cc23)-c2ccccc2N1" 72

Report residual activity from Tyrosine-protein kinase Tec (Homo sapiens) (UniProt P42680) testing of "CN(C)S(=O)(=O)c1ccc2c(c1)/C(=C/c1cc3c([nH]1)CCCC3)C(=O)N2" 80

Report residual activity from Tyrosine-protein kinase Tec (Homo sapiens) (UniProt P42680) testing of "COc1ccc(COc2ccc(Cc3cnc(N)nc3N)cc2OC)cc1" 81

Report residual activity from Tyrosine-protein kinase Tec (Homo sapiens) (UniProt P42680) testing of "CC(C)N(CCC(=O)c1ccc2ccccc2c1)Cc1ccccc1" 73

Report residual activity from Tyrosine-protein kinase Tec (Homo sapiens) (UniProt P42680) testing of "O=c1cc(N2CCNCC2)oc2c(-c3ccccc3)cccc12" 80
